This listing pairs binders with measured Kd.
- measurement-target: GST-tagged CgGal11Ap KIX domain (amino acids 1-86) (C. glabrata, UniProt P08515 1-218 = GST)
- Sequence (P08515 whole entry, the tested form may be a part): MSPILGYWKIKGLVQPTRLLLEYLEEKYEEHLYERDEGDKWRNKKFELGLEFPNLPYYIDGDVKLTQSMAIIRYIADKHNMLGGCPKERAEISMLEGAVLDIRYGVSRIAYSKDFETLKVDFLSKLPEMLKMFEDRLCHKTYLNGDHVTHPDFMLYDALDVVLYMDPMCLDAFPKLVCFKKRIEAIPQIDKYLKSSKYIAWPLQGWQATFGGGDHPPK
- procedure-text: fluorescence anisotropy/polarization, FITC peptide with increasing GST-CgGal11Ap KIX
Ends that are not written are not given here. * marks the point of attachment. FITC = O=C1OC2(c3ccc(O)cc3Oc3cc(O)ccc32)c2ccc(NC(=S)*)cc21
quantity-name: Kd

binder	value-reported
{FITC}-LGTLDEFVNKGDLNELYNSLWGDLFSDVYL (also called FITC-labled-CgPdr1pAD-30; Fluorescein-tagged CgPdr1pAD-30 peptide) [FITC-CgPdr1pAD-30 (FITC-LGTLDEFVNKGDLNELYNSLWGDLFSDVYL)]	~2 µM
{FITC}-LYNSLWGDLFSDVYL (also called short Fluorescein-tagged CgPdr1pAD peptide) [Fluorescein-conjugated 15-amino acid CgPdr1pAD peptide (FITC-LYNSLWGDLFSDVYL)]	~210 µM
